molecular target: HDAC8 (Homo sapiens)
Sequence (Q9BY41 whole entry): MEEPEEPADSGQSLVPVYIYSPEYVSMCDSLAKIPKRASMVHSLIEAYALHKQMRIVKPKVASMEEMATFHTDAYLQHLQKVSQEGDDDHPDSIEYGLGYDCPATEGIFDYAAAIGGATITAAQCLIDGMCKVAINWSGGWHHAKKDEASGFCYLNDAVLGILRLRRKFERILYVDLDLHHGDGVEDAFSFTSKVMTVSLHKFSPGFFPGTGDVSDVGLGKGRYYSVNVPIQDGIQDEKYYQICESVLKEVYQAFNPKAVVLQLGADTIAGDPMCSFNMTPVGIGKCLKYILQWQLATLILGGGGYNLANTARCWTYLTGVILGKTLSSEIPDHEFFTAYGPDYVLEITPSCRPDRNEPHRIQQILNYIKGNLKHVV
Measurement kind: pIC50
Answers are plain numbers, as −log10 of the molar value.

Input line: Fill in the blank: the reported pIC50 of O=C(CCCCCCNC(=O)c1cc(OCCc2ccccc2)c2ccccc2n1)NO is ____.
Output line: 6.12

====

Test: In vivo pharmacokinetic study
Conditions: Sprague-Dawley, rat, plasma, po; i.g. 10 mg/kg, male SD rats
Description: The compound was prepared in a 1 mg/mL working solution using DMSO/solutol/saline. SD rats (6–8 weeks old, 180–200 g, male) were purchased from Beijing HFK Bioscience Co., Ltd. (Beijing, China) and fed in accordance with the guidelines for the care and use of laboratory animals of the ethical committee of Shandong University. […] The LC–MS/MS was used to detect the concentration of the analyte at each time point, and the pharmacokinetic parameters were calculated using WinNolin8.2 software.
Measurement kind: Tmax (min)
Give bare numbers, in min.

Input line: Fill in the blank: the reported Tmax of O=C(CCCCCCNC(=O)c1cc(OCCc2ccccc2)c2ccccc2n1)NO [SDFZ-8] is ____.
Output line: 19.8

====

target: HDAC2 (Homo sapiens)
Sequence (Q92769 whole entry): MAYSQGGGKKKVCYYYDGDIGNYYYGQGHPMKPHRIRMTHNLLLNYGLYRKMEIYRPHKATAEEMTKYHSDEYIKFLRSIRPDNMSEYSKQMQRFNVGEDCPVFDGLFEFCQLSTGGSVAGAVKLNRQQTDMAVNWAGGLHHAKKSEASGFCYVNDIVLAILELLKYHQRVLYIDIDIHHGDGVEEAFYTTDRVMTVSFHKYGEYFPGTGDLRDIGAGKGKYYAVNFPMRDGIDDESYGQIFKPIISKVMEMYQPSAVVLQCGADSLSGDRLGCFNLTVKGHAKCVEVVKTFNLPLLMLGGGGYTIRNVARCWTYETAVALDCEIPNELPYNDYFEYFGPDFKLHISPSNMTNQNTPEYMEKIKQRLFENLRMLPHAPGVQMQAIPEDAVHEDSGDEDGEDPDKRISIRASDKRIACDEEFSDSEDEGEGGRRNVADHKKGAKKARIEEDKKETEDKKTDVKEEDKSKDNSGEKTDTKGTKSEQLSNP
Measurement kind: pIC50
Numbers only, as −log10 of the molar value.

Input line: Fill in the blank: the reported pIC50 of O=C(CCCCCCNC(=O)c1cc(OCCc2ccccc2)c2ccccc2n1)NO [SDFZ-8] is ____.
Output line: 8.24

====

biological target: HDAC3/NCOR1 complex (Homo sapiens, UniProt O15379); experiment: HDACs enzymatic assay HDAC3; conditions: Class I; mean ± SD of three
Sequence (O15379 whole entry): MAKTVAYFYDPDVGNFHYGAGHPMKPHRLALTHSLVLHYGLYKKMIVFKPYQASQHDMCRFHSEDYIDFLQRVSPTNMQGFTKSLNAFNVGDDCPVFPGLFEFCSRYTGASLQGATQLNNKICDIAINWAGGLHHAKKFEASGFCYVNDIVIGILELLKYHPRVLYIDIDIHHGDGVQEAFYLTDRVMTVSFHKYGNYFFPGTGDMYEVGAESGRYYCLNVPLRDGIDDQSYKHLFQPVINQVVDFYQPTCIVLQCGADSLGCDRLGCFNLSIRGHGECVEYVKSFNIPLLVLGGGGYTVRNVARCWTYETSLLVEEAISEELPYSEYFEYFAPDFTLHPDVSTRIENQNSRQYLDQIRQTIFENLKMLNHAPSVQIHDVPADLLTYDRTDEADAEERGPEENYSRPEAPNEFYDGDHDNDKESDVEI
Sequence (Q9Y618 395-489 partner): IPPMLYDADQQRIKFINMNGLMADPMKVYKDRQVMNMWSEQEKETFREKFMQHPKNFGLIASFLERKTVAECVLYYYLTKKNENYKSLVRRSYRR
Measurement kind: IC50
Kindly format the answer as number then unit.

Input line: Report IC50 for O=C(CCCCCCNC(=O)c1cc(OCCc2ccccc2)c2ccccc2n1)NO [SDFZ-8] tested on HDAC3/NCOR1 complex (Homo sapiens, UniProt O15379).
Output line: 0.3 µM

====

assay: In vivo pharmacokinetic study; details: Sprague-Dawley, rat, plasma, iv; i.v. 2.5 mg/kg, male SD rats
Measurement kind: AUC(0-t)
Kindly format the answer as number then unit.

Input line: Fill in the blank: the reported AUC(0-t) of O=C(CCCCCCNC(=O)c1cc(OCCc2ccccc2)c2ccccc2n1)NO [SDFZ-8] is ____.
Output line: 2730 ng·h/mL

====

assay: In vivo pharmacokinetic study; settings: Sprague-Dawley, rat, plasma, oral; i.g. 10 mg/kg vs i.v. 2.5 mg/kg, male SD rats; read-out: F% (oral bioavailability)
Measurement kind: bioavailability
Kindly format the answer as number then unit.

Input line: Fill in the blank: the reported bioavailability of O=C(CCCCCCNC(=O)c1cc(OCCc2ccccc2)c2ccccc2n1)NO [SDFZ-8] is ____.
Output line: 26.1%

====

Assay: In vivo pharmacokinetic study
Conditions: Sprague-Dawley, rat, plasma, po; i.g. 10 mg/kg, male SD rats
Description: The compound was prepared in a 1 mg/mL working solution using DMSO/solutol/saline. SD rats (6–8 weeks old, 180–200 g, male) were purchased from Beijing HFK Bioscience Co., Ltd. (Beijing, China) and fed in accordance with the guidelines for the care and use of laboratory animals of the ethical committee of Shandong University. […] The LC–MS/MS was used to detect the concentration of the analyte at each time point, and the pharmacokinetic parameters were calculated using WinNolin8.2 software.
Measurement kind: AUC(0-t) (ng·h/mL)
Give bare numbers, in ng·h/mL.

Input line: Fill in the blank: the reported AUC(0-t) of O=C(CCCCCCNC(=O)c1cc(OCCc2ccccc2)c2ccccc2n1)NO [SDFZ-8] is ____.
Output line: 3080
